System: Haemophilus influenzae
Test description: In vitro antimicrobial activity against Haemophilus influenzae.
Assay type: functional
Each entry below lists one item and its recorded MIC value.
// note: answer is a bare numeric in µg/mL

CC[C@H]1C[C@@H](C)C(=O)/C=C/C(C)=C/[C@H](CO)[C@@H](CC)OC(=O)C[C@@H](O)[C@H](C)[C@H]1O[C@@H]1O[C@H](C)[C@@H](O)[C@H](N(C)C)[C@H]1O: 32

Provide measured MIC value, entry: CC[C@H]1OC(=O)C[C@@H](O)[C@H](C)[C@@H](O[C@@H]2O[C@H](C)[C@@H](O)[C@H](N(C)C)[C@H]2O)[C@@H](CCOc2ccc(OC(C)=O)cc2)C[C@@H](C)C(=O)/C=C/C(C)=C/[C@@H]1CO
16

----------
Examples of compounds with documented MIC follow.
Tested on: Streptococcus pyogenes
Test description: In vitro antimicrobial activity against Streptococcus pyogenes C203
Type: functional
Numeric answer only, unit µg/mL assumed.

Here's what some known entries look like.
CC[C@H]1OC(=O)C[C@@H](O)[C@H](C)[C@@H](O[C@@H]2O[C@H](C)[C@@H](O)[C@H](N(C)C)[C@H]2O)[C@@H](CCOc2cccnc2)C[C@@H](C)C(=O)/C=C/C(C)=C/[C@@H]1CO[C@@H]1O[C@H](C)[C@@H](O)[C@@H](OC)[C@H]1OC: 2
CC[C@H]1OC(=O)C[C@@H](O)[C@H](C)[C@@H](O[C@@H]2O[C@H](C)[C@@H](O[C@H]3C[C@@](C)(O)[C@@H](O)[C@H](C)O3)[C@H](N(C)C)[C@H]2O)[C@@H](CCOc2ccc(OC)cc2)C[C@@H](C)C(=O)/C=C/C(C)=C/[C@@H]1CO[C@@H]1O[C@H](C)[C@@H](O)[C@@H](OC)[C@H]1OC: 1

Indicate its recorded MIC; the compound in question is CC[C@H]1OC(=O)C[C@@H](O)[C@H](C)[C@@H](O[C@@H]2O[C@H](C)[C@@H](O)[C@H](N(C)C)[C@H]2O)[C@@H](CCOC(C(F)(F)F)C(F)(F)F)C[C@@H](C)C(=O)/C=C/C(C)=C/[C@@H]1CO[C@@H]1O[C@H](C)[C@@H](O)[C@@H](OC)[C@H]1OC
0.5

----------
System: Prevotella melaninogenica
Test description: In vitro antimicrobial activity against anaerobic bacteria bacteroides melaninogenicus 2736
Assay type: functional
Kindly apply the following: true if MIC is less than 2 µg/mL, false in every other case.

Reference set (2 entries):
CC[C@H]1OC(=O)[C@H](C)[C@@H](O[C@H]2C[C@@](C)(OC)[C@@H](O)[C@H](C)O2)[C@H](C)[C@@H](O[C@@H]2O[C@H](C)C[C@H](N(C)C)[C@H]2O)[C@](C)(O)C[C@@H](C)C(=O)[C@H](C)[C@@H](O)[C@]1(C)O: true
CC[C@H]1C[C@@H](C)C(=O)/C=C/C(C)=C/[C@H](CO[C@@H]2O[C@H](C)[C@@H](O)[C@@H](OC)[C@H]2OC)[C@@H](CC)OC(=O)C[C@@H](O)[C@H](C)[C@H]1O[C@@H]1O[C@H](C)[C@@H](O)[C@H](N(C)C)[C@H]1O: false

Criterion: MIC strictly below 2 µg/mL. Is it met by CC[C@H]1C[C@@H](C)C(=O)/C=C/C(C)=C/[C@H](CO)[C@@H](CC)OC(=O)C[C@@H](O)[C@H](C)[C@H]1O[C@@H]1O[C@H](C)[C@@H](O)[C@H](N(C)C)[C@H]1O ?
false

API: query returns whether the compound falls strictly under 2 µg/mL in MIC. Query: CC[C@H]1OC(=O)C[C@@H](O)[C@H](C)[C@@H](O[C@@H]2O[C@H](C)[C@@H](O)[C@H](N(C)C)[C@H]2O)[C@@H](CCO)C[C@@H](C)C(=O)/C=C/C(C)=C/[C@@H]1CO
false

Find out if reported MIC for CC[C@H]1OC(=O)C[C@@H](O)[C@H](C)[C@@H](O[C@@H]2O[C@H](C)[C@@H](O[C@H]3C[C@@](C)(O)[C@@H](O)[C@H](C)O3)[C@H](N(C)C)[C@H]2O)[C@@H](CC=O)C[C@@H](C)C(=O)/C=C/C(C)=C/[C@@H]1CO[C@@H]1O[C@H](C)[C@@H](O)[C@@H](OC)[C@H]1OC is less than 2 µg/mL
true

Strictly below 2 µg/mL in MIC? CC[C@H]1OC(=O)C[C@@H](O)[C@H](C)[C@@H](O[C@@H]2O[C@H](C)[C@@H](O)[C@H](N(C)C)[C@H]2O)[C@@H](CCOc2ccc(-c3ccccc3)cc2)C[C@@H](C)C(=O)/C=C/C(C)=C/[C@@H]1CO[C@@H]1O[C@H](C)[C@@H](O)[C@@H](OC)[C@H]1OC
true

Lab log: compare recorded MIC with 2 µg/mL; is it strictly lower for CC[C@H]1OC(=O)C[C@@H](O)[C@H](C)[C@@H](O[C@@H]2O[C@H](C)[C@@H](O)[C@H](N(C)C)[C@H]2O)[C@@H](CC=O)C[C@@H](C)C(=O)/C=C/C(C)=C/[C@@H]1CO ?
false

----------
Tested on: Staphylococcus aureus
Test description: In vitro antimicrobial activity against Staphylococcus aureus X1
Assay type: functional
Result type: MIC (µg/mL)
Kindly provide the numeric value in µg/mL only, without the unit symbol.

For orientation, consider the following solved cases.
CC[C@H]1OC(=O)C[C@@H](O)[C@H](C)[C@@H](O[C@@H]2O[C@H](C)[C@@H](O)[C@H](N(C)C)[C@H]2O)[C@@H](CCSc2ccccc2)C[C@@H](C)C(=O)/C=C/C(C)=C/[C@@H]1CO[C@@H]1O[C@H](C)[C@@H](O)[C@@H](OC)[C@H]1OC: 0.25
CC[C@H]1OC(=O)C[C@@H](O)[C@H](C)[C@@H](O[C@@H]2O[C@H](C)[C@@H](O[C@H]3C[C@@](C)(O)[C@@H](O)[C@H](C)O3)[C@H](N(C)C)[C@H]2O)[C@@H](CCOc2ncnc3ccccc23)C[C@@H](C)C(=O)/C=C/C(C)=C/[C@@H]1CO[C@@H]1O[C@H](C)[C@@H](O)[C@@H](OC)[C@H]1OC: 0.5
CC[C@H]1C[C@@H](C)C(=O)/C=C/C(C)=C/[C@H](C)[C@@H](CC)OC(=O)C[C@@H](O)[C@H](C)[C@H]1O[C@@H]1O[C@H](C)[C@@H](O)[C@H](N(C)C)[C@H]1O: 8
CC[C@H]1OC(=O)C[C@@H](O)[C@H](C)[C@@H](O[C@@H]2O[C@H](C)[C@@H](O)[C@H](N(C)C)[C@H]2O)[C@@H](CC=O)C[C@@H](C)C(=O)/C=C/C(C)=C/[C@@H]1CO: 1

Quick one: give measured MIC for CC[C@H]1OC(=O)C[C@@H](O)[C@H](C)[C@@H](O[C@@H]2O[C@H](C)[C@@H](O)[C@H](N(C)C)[C@H]2O)[C@@H](CCI)C[C@@H](C)C(=O)/C=C/C(C)=C/[C@@H]1CO[C@@H]1O[C@H](C)[C@@H](O)[C@@H](O)[C@H]1OC
0.5

Annotate the molecule CC[C@H]1OC(=O)C[C@@H](O)[C@H](C)[C@@H](O[C@@H]2O[C@H](C)[C@@H](O)[C@H](N(C)C)[C@H]2O)[C@@H](CCOc2cccc(Oc3ccccc3)c2)C[C@@H](C)C(=O)/C=C/C(C)=C/[C@@H]1CO[C@@H]1O[C@H](C)[C@@H](O)[C@@H](OC)[C@H]1OC with its measured MIC.
0.5

----------
System: Rattus norvegicus
Test description: Peripheral plasma levels in rats after oral administration of 100 mg/kg dose for 1 hr
Assay type: functional, organism-based
Parameters: dose 100 mg/kg
Result type: Concentration (µg/mL)
# value in µg/mL; strip the unit string

Below are worked cases with known answers.
CC[C@H]1OC(=O)C[C@@H](O)[C@H](C)[C@@H](O[C@@H]2O[C@H](C)[C@@H](O)[C@H](N(C)C)[C@H]2O)[C@@H](CCCl)C[C@@H](C)C(=O)/C=C/C(C)=C/[C@@H]1CO[C@@H]1O[C@H](C)[C@@H](O)[C@@H](OC)[C@H]1OC: 9.4
CC[C@H]1OC(=O)C[C@@H](O)[C@H](C)[C@@H](O[C@@H]2O[C@H](C)[C@@H](O)[C@H](N(C)C)[C@H]2O)[C@@H](CCSc2ccccc2)C[C@@H](C)C(=O)/C=C/C(C)=C/[C@@H]1CO[C@@H]1O[C@H](C)[C@@H](O)[C@@H](OC)[C@H]1OC: 2.5

Lab note: Rattus norvegicus assay, enter Concentration for CC[C@H]1OC(=O)C[C@@H](O)[C@H](C)[C@@H](O[C@@H]2O[C@H](C)[C@@H](O)[C@H](N(C)C)[C@H]2O)[C@@H](CCN2CCCCCCC2)C[C@@H](C)C(=O)/C=C/C(C)=C/[C@@H]1CO[C@@H]1O[C@H](C)[C@@H](O)[C@@H](OC)[C@H]1OC here
0.2

Find Concentration for CC[C@H]1OC(=O)C[C@@H](O)[C@H](C)[C@@H](O[C@@H]2O[C@H](C)[C@@H](O[C@H]3C[C@@](C)(O)[C@@H](O)[C@H](C)O3)[C@H](N(C)C)[C@H]2O)[C@@H](CCN2C(=O)c3ccccc3C2=O)C[C@@H](C)C(=O)/C=C/C(C)=C/[C@@H]1CO[C@@H]1O[C@H](C)[C@@H](O)[C@@H](OC)[C@H]1OC on Rattus norvegicus and write it down.
2.1
